The measurements presented in this section are drawn from patent US9802899B2.

experimental-protocol: Determination of the log P values by HPLC (formic acid method)
Format: physicochemical
condition-notes: reversed-phase column (C 18), acidic range (pH 3.4), 55° C.
measurement-name: log P

>  <compound>
O=C(Nc1ccn(-c2c(F)cccc2F)n1)c1ccc[n+]([O-])c1C(F)(F)F [Compound I-1-243]

>  <measurement-name>
log P

>  <reported-measurement>
1.80

$$$$
>  <compound>
Cc1cc(NC(=O)c2ccccc2I)nn1-c1ccccc1Cl [Compound I-1-35]

>  <measurement-name>
log P

>  <reported-measurement>
2.53

$$$$
>  <compound>
Cc1cc(NC(=O)c2ncccc2C(F)(F)F)nn1-c1ccccc1Cl [Compound I-1-376]

>  <measurement-name>
log P

>  <reported-measurement>
2.57

$$$$
>  <compound>
Cc1cccc(C)c1C(=O)Nc1ccn(-c2c(F)cccc2F)n1 [Compound I-1-268]

>  <measurement-name>
log P

>  <reported-measurement>
2.68

$$$$
>  <compound>
O=C(Nc1ccn(-c2ncc(F)cc2F)n1)c1cccnc1C(F)(F)F [Compound I-1-151]

>  <measurement-name>
log P

>  <reported-measurement>
2.02

$$$$
>  <compound>
COc1ccccc1-n1ccc(NC(=O)c2ccccc2Br)n1 [Compound I-1-2]

>  <measurement-name>
log P

>  <reported-measurement>
2.69

$$$$
>  <compound>
O=C(Nc1ccn(-c2cccc(F)c2F)n1)c1ccccc1Cl [Compound I-1-189]

>  <measurement-name>
log P

>  <reported-measurement>
3.01

$$$$
>  <compound>
O=C(Nc1ccn(-c2c(F)cccc2F)n1)c1occc1I [Compound I-1-288]

>  <measurement-name>
log P

>  <reported-measurement>
2.64

$$$$
>  <compound>
O=C(Nc1ccn(-c2ncccc2F)n1)c1cccnc1Cl [Compound I-1-579]

>  <measurement-name>
log P

>  <reported-measurement>
1.53

$$$$
>  <compound>
O=C(Nc1ccn(-c2nccnc2F)n1)c1ncccc1C(F)(F)F [Compound I-1-178]

>  <measurement-name>
log P

>  <reported-measurement>
1.77

$$$$
>  <compound>
CCn1ncc(I)c1C(=O)Nc1ccn(-c2c(F)cccc2F)n1 [Compound I-1-235]

>  <measurement-name>
log P

>  <reported-measurement>
2.76

$$$$
>  <compound>
O=C(Nc1ccn(-c2ncccc2C(F)(F)F)n1)c1ccccc1I [Compound I-1-427]

>  <measurement-name>
log P

>  <reported-measurement>
2.72

$$$$
>  <compound>
N#Cc1c(F)cccc1-n1ccc(NC(=O)c2c(F)cccc2C(F)(F)F)n1 [Compound I-1-623]

>  <measurement-name>
log P

>  <reported-measurement>
2.68

$$$$
>  <compound>
O=C(Nc1ccn(-c2ccccc2Br)n1)c1ncccc1C(F)(F)F [Compound I-1-54]

>  <measurement-name>
log P

>  <reported-measurement>
2.99

$$$$
>  <compound>
O=C(Nc1ccn(-c2c(F)cccc2F)n1)c1ccccc1I [Compound I-1-83]

>  <measurement-name>
log P

>  <reported-measurement>
2.67

$$$$
>  <compound>
Cc1nn(C)c(C(=O)Nc2ccn(-c3c(F)cccc3F)n2)c1C(F)F [Compound I-1-294]

>  <measurement-name>
log P

>  <reported-measurement>
2.34

$$$$
>  <compound>
CS(=O)(=O)c1ccccc1-n1ccc(NC(=O)c2ccccc2Br)n1 [Compound I-1-182]

>  <measurement-name>
log P

>  <reported-measurement>
2.00

$$$$
>  <compound>
O=C(Nc1cnn(-c2c(F)cccc2F)n1)c1ccncc1C(F)(F)F [Compound I-2-81]

>  <measurement-name>
log P

>  <reported-measurement>
2.36

$$$$
>  <compound>
O=C(Nc1ccn(-c2cnc(Cl)cn2)n1)c1c(F)cccc1F [Compound I-1-387]

>  <measurement-name>
log P

>  <reported-measurement>
2.67

$$$$
>  <compound>
O=C(Nc1ccn(-c2ncc(F)cc2F)n1)c1c(Cl)cccc1C(F)(F)F [Compound I-1-638]

>  <measurement-name>
log P

>  <reported-measurement>
2.70

$$$$
>  <compound>
Cn1nc(C(F)F)c(C(=O)Nc2ccn(-c3ccccc3Cl)n2)c1F [Compound I-1-49]

>  <measurement-name>
log P

>  <reported-measurement>
2.59

$$$$
>  <compound>
O=C(Nc1ccn(-c2ccccc2C(F)(F)F)n1)c1ccccc1Br [Compound I-1-186]

>  <measurement-name>
log P

>  <reported-measurement>
2.96

$$$$
>  <compound>
O=C(Nc1cnn(-c2ncccc2F)n1)c1cccnc1Br [Compound I-2-47]

>  <measurement-name>
log P

>  <reported-measurement>
1.49

$$$$
>  <compound>
CC1=C(C(=O)Nc2ccn(-c3c(F)cccc3F)n2)S(=O)(=O)CCO1 [Compound I-1-616]

>  <measurement-name>
log P

>  <reported-measurement>
1.80

$$$$
>  <compound>
O=C(Nc1ccn(-c2ncccc2Cl)n1)c1ccsc1I [Compound I-1-566]

>  <measurement-name>
log P

>  <reported-measurement>
2.46

$$$$
>  <compound>
N#Cc1cn(-c2ccccc2Cl)nc1NC(=O)c1ccccc1I [Compound I-1-368]

>  <measurement-name>
log P

>  <reported-measurement>
2.51

$$$$
>  <compound>
Cc1cc(NC(=O)c2cccnc2C(F)(F)F)nn1-c1ccccc1Cl [Compound I-1-349]

>  <measurement-name>
log P

>  <reported-measurement>
2.13

$$$$
>  <compound>
O=C(Nc1ccn(-c2cncc(F)n2)n1)c1cccnc1C(F)(F)F [Compound I-1-402]

>  <measurement-name>
log P

>  <reported-measurement>
2.76

$$$$
>  <compound>
Cc1cc(C)c(C#N)c(-n2ccc(NC(=O)c3ccccc3C(F)(F)F)n2)n1 [Compound I-1-567]

>  <measurement-name>
log P

>  <reported-measurement>
3.15

$$$$
>  <compound>
CCC(C)n1ncc(I)c1C(=O)Nc1ccn(-c2ncc(F)cc2F)n1 (stereo not drawn) [Compound I-1-456]

>  <measurement-name>
log P

>  <reported-measurement>
3.28

$$$$
>  <compound>
CS(=O)(=O)c1ccccc1-n1ccc(NC(=O)c2cccnc2C(F)(F)F)n1 [Compound I-1-180]

>  <measurement-name>
log P

>  <reported-measurement>
2.00

$$$$
>  <compound>
O=C(Nc1ccn(-c2ccccc2Br)n1)c1cccnc1Cl [Compound I-1-57]

>  <measurement-name>
log P

>  <reported-measurement>
2.37

$$$$
>  <compound>
O=C(Nc1ccn(-c2ccccc2Br)n1)c1cccnc1C(F)(F)F [Compound I-1-56]

>  <measurement-name>
log P

>  <reported-measurement>
2.54

$$$$
>  <compound>
O=C(Nc1ccn(-c2ncc(Cl)cc2Cl)n1)c1ccccc1Br [Compound I-1-430]

>  <measurement-name>
log P

>  <reported-measurement>
2.95

$$$$
>  <compound>
CC1=C(C(=O)Nc2ccn(-c3c(F)cccc3F)n2)OCCO1 [Compound I-1-615]

>  <measurement-name>
log P

>  <reported-measurement>
2.42

$$$$
>  <compound>
Cc1cc(NC(=O)c2ccccc2Br)nn1-c1ccc(F)cc1F [Compound I-1-208]

>  <measurement-name>
log P

>  <reported-measurement>
3.63

$$$$
